- systemName: huPD-L1 (Homo sapiens, UniProt Q9NZQ7)
- Sequence (Q9NZQ7 19-290): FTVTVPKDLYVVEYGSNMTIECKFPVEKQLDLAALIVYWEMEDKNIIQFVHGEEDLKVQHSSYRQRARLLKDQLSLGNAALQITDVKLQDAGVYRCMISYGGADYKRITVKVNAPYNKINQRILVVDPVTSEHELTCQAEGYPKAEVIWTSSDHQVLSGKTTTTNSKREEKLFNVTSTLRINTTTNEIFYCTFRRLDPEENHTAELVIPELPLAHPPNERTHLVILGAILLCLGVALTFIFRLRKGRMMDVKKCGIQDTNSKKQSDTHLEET
- test: Flow binding to CHO cells stably expressing PD-L1
- Parameters: huCTLA4 and huPD-L1, full-length mammalian surface expression constructs were generated; expressed in transfected cells; host or cells: CHO cells, lentiviral transduction, sorted to >98% purity
- appliedConditions: Table E20; CHO cells stably expressing PD-L1; 33.3 nM
endpointName: PD-L1 MFI at 33.3 nM
Give bare numbers.

A26E/M47L/A71G/D90G (protein) VIHVTKEVKEVATLSCGHNVSVEELEQTRIYWQKEKKMVLTMMSGDLNIWPEYKNRTIFDITNNLSIVILGLRPSDEGTYECVVLKYEKGAFKREHLAEVTLSVKAD = 13204
A26E/M47L/V68M/D90G (protein) VIHVTKEVKEVATLSCGHNVSVEELEQTRIYWQKEKKMVLTMMSGDLNIWPEYKNRTIFDITNNLSIMILALRPSDEGTYECVVLKYEKGAFKREHLAEVTLSVKAD = 10626
H18Y/M47L/V68M/D90G (protein) VIHVTKEVKEVATLSCGYNVSVEELAQTRIYWQKEKKMVLTMMSGDLNIWPEYKNRTIFDITNNLSIMILALRPSDEGTYECVVLKYEKGAFKREHLAEVTLSVKAD = 21768
A26E/E35D/M47L/D90G (protein) VIHVTKEVKEVATLSCGHNVSVEELEQTRIYWQKDKKMVLTMMSGDLNIWPEYKNRTIFDITNNLSIVILALRPSDEGTYECVVLKYEKGAFKREHLAEVTLSVKAD = 9577
E35D/M47L/A71G/D90G (protein) VIHVTKEVKEVATLSCGHNVSVEELAQTRIYWQKDKKMVLTMMSGDLNIWPEYKNRTIFDITNNLSIVILGLRPSDEGTYECVVLKYEKGAFKREHLAEVTLSVKAD = 12073

I need PD-L1 MFI at 33.3 nM for every entry listed below, if you could help.
1. A26E/E35D/V68M/A71G (protein) VIHVTKEVKEVATLSCGHNVSVEELEQTRIYWQKDKKMVLTMMSGDMNIWPEYKNRTIFDITNNLSIMILGLRPSDEGTYECVVLKYEKDAFKREHLAEVTLSVKAD
2. H18Y/A26E/V68M/A71G (protein) VIHVTKEVKEVATLSCGYNVSVEELEQTRIYWQKEKKMVLTMMSGDMNIWPEYKNRTIFDITNNLSIMILGLRPSDEGTYECVVLKYEKDAFKREHLAEVTLSVKAD
3. M47L/V68M/A71G/D90G (protein) VIHVTKEVKEVATLSCGHNVSVEELAQTRIYWQKEKKMVLTMMSGDLNIWPEYKNRTIFDITNNLSIMILGLRPSDEGTYECVVLKYEKGAFKREHLAEVTLSVKAD
4. H18Y/A26E/V68M/D90G (protein) VIHVTKEVKEVATLSCGYNVSVEELEQTRIYWQKEKKMVLTMMSGDMNIWPEYKNRTIFDITNNLSIMILALRPSDEGTYECVVLKYEKGAFKREHLAEVTLSVKAD

1: 12611; 2: 6866; 3: 31114; 4: 12845

I need PD-L1 MFI at 33.3 nM for every entry listed below, if you could help.
1. H18Y/A26E/M47L/A71G (protein) VIHVTKEVKEVATLSCGYNVSVEELEQTRIYWQKEKKMVLTMMSGDLNIWPEYKNRTIFDITNNLSIVILGLRPSDEGTYECVVLKYEKDAFKREHLAEVTLSVKAD
2. H18Y/E35D/A71G/D90G (protein) VIHVTKEVKEVATLSCGYNVSVEELAQTRIYWQKDKKMVLTMMSGDMNIWPEYKNRTIFDITNNLSIVILGLRPSDEGTYECVVLKYEKGAFKREHLAEVTLSVKAD
3. A26E/V68M/A71G/D90G (protein) VIHVTKEVKEVATLSCGHNVSVEELEQTRIYWQKEKKMVLTMMSGDMNIWPEYKNRTIFDITNNLSIMILGLRPSDEGTYECVVLKYEKGAFKREHLAEVTLSVKAD
4. H18Y/A26E/E35D/V68M (protein) VIHVTKEVKEVATLSCGYNVSVEELEQTRIYWQKDKKMVLTMMSGDMNIWPEYKNRTIFDITNNLSIMILALRPSDEGTYECVVLKYEKDAFKREHLAEVTLSVKAD
5. H18Y/A26E/E35D/M47L (protein) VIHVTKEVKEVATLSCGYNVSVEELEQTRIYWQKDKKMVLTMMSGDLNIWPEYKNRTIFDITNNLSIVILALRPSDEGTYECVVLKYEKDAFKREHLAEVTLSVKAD
6. H18Y/V68M/A71G/D90G (protein) VIHVTKEVKEVATLSCGYNVSVEELAQTRIYWQKEKKMVLTMMSGDMNIWPEYKNRTIFDITNNLSIMILGLRPSDEGTYECVVLKYEKGAFKREHLAEVTLSVKAD

15563
8524
3195
17904
9951
30670
